Target: CaBdf1 BD1 (Candida albicans)
Construct: made in house; host or cells: E. coli BL21(DE3)
Sequence (Q5A4W8 193-327): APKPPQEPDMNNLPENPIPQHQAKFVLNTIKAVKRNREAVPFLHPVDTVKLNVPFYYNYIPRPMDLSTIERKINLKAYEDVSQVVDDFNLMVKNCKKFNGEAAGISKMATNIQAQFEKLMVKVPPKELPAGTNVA
Experiment: HTRF assay, inhibition of BD binding to H4ac4 peptide
Parameters: species or system C. albicans
Conditions: HTRF, H4ac4 peptide; read-out: IC50
quantity-kind: pIC50
Scale explanation: pIC50 corresponds to minus log10 of a concentration expressed in moles per litre.

Would you mind telling me what pIC50 value was observed for CN1C(=O)c2ccccc2Sc2cc(NC(=O)C3CCCO3)ccc21 (centres unmarked) ?
5.77

====

Target: CaBdf1 BD2 (Candida albicans, UniProt Q5A4W8)
Sequence (Q5A4W8 386-491): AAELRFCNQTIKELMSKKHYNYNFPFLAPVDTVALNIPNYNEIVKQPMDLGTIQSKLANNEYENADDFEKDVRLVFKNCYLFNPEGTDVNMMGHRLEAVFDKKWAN
Experiment: Isothermal titration calorimetry (ITC)
quantity-kind: pKd
// pKd: -log10(molar conc.)

Give the measured pKd of Cc1ccc(Nc2c(-c3ccc(O)cc3)nc3c(C)cccn23)cc1 [Compound 2] .
5.68
